Target: T1, SEQ ID NO: 346 glycopeptide with TF-antigen at Thr4
T1 construct: also called T4^TF
T1 peptide: HGVT(Galβ1‑3GalNAc)SAPDTRPAPGSTAPP
Assay: ELISA on coated glycopeptide, antibody 0.01 mg/ml, mean of 3
Where no end group is shown, it is not given here. Galβ1‑3GalNAc = TF-antigen
MEASURE NAME: ELISA absorbance at 450 nm (absorbance)

BINDER: M3 (antibody, human IgG1, lambda, V domains shown, Human IgG) VH: QLQLQESGPGLVKPSETLSLTCTVSGGSISSSSYYWGWIRQPPGKGLEWIGSIYYSGSTHYNPSLKSRVTISVDTSKNQFSLKLRSVTAADTAVYYCARGVVEVRGNHYYYYYMDVWGKGTTVTVSS VL: QSVLTQPPSVSGAPGQRVTISCTGSSSNIGAGYDVHWYQQLPGTAPKLLIYGNSYRPSGVPDRFSGSKSGTSASLAITGLQAEDEADYYCQSYDSSLSGSGVFGGGTKLTVLG
RESULT VALUE: 0.1
